- SYSTEM: T1, human VEGF-A residues 27-191 of Accession #AAV38412 (human, UniProt P15692 27-191)
- T1 construct: range 27-191
- T1 sequence (P15692 other isoform, or with tags, fused parts or gaps limits assumed): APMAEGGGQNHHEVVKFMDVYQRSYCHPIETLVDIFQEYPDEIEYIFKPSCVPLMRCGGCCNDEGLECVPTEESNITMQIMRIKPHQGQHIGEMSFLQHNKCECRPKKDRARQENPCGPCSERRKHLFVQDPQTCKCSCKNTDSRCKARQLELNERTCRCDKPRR
- TEST PROTOCOL: BIAcore SPR, KD WT/KD mutant
QUANTITY: affinity improvement (fold)
Express your answer in fold, writing the number without its unit.

Requested read-out: affinity improvement. Entry: N31 H (anti-VEGF IgG) (antibody, V domains shown, copies: 2 + 2) VH: EVQLVESGGGLVQPGGSLRLSCAASGYTFTHYGMNWVRQAPGKGLEWVGWINTYTGEPTYAADFKRRFTFSLDTSKSTAYLQMNSLRAEDTAVYYCAKYPHYYGSSHWYFDVWGQGTLVTVSS VL: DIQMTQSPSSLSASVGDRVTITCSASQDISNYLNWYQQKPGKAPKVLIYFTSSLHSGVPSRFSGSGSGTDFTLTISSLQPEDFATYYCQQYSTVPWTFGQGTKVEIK
2.5

And what about the binder T28 R (anti-VEGF IgG) (antibody, V domains shown, copies: 2 + 2) VH: EVQLVESGGGLVQPGGSLRLSCAASGYRFTNYGMNWVRQAPGKGLEWVGWINTYTGEPTYAADFKRRFTFSLDTSKSTAYLQMNSLRAEDTAVYYCAKYPHYYGSSHWYFDVWGQGTLVTVSS VL: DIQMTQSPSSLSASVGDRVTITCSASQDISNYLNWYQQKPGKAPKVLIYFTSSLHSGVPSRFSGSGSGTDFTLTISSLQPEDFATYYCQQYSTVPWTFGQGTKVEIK ?
0.6
